Tested on: HepG2 cells
Assay: HepG2 cytostatic
Type: cell-based, human
Settings: Homo sapiens
readout_name: IC50

Answered cases to consult:
compound	IC50
O=C(O)C[C@H]1C[C@H](c2ccc(C(F)(F)F)cc2)CN(Cc2ccc(C(F)(F)F)cc2)C1	5 to 25 µM
N#Cc1ccc([C@@H]2C[C@@H](CC(=O)O)CN(Cc3ccc(C(F)(F)F)cc3)C2)cc1 (racemic)	5 to 25 µM

Query :: # get_value(readout= IC50, system= HepG2 cells) for `COc1cc(CN2C[C@H](CC(=O)O)C[C@@H](c3ccc(C(F)(F)F)cc3)C2)cc(C(F)(F)F)c1`
Result :: > 25 µM

----------
Listed next: entries and their corresponding IC50.
Tested on: HepG2 cells
Test: HepG2 cytostatic
Format: cell-based, human
Details: Homo sapiens

Answered cases to consult:
compound	target_or_system	result
COc1ccc([C@H]2C[C@H](CC(=O)O)CN(Cc3ccc(C(F)(F)F)cc3)C2)cc1 (racemic)	HepG2 cells	5 to 25 µM
O=C(O)C[C@H]1C[C@H](c2cccc(C(F)(F)F)c2)CN(Cc2ccc(C(F)(F)F)cc2)C1 (racemic)	HepG2 cells	5 to 25 µM
COc1cc([C@H]2C[C@H](CC(=O)O)CN(Cc3ccc(C(F)(F)F)cc3)C2)cc(C(F)(F)F)c1 (racemic)	HepG2 cells	0.5 to 5 µM

We next turn to a different compound, shown below.
Query :: # get_value(readout= IC50, system= HepG2 cells) for COc1cccc([C@H]2C[C@H](CC(=O)O)CN(Cc3ccc(C(F)(F)F)cc3)C2)c1 (racemic)
Result :: 5 to 25 µM
